Listed variants paired with reported self-cleavage
B1: LINE1-full (parent)
chain: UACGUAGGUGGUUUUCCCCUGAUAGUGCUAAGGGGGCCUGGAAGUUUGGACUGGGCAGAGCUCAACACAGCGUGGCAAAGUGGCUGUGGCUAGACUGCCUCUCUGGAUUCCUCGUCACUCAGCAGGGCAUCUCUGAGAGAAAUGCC

Variants of: B1
Assay: self-cleavage, relative activity (ratio to wild type); higher = more cleavage; in vitro, sequencing; the parent is a self-cleaving ribozyme
measure: self-cleavage

sequence_change="A22G U52G" measure=self-cleavage result=0.92
sequence_change="U47C A117G" measure=self-cleavage result=1.81
sequence_change="U20C C103A" measure=self-cleavage result=1.49
sequence_change="C17U A138G" measure=self-cleavage result=1.06
sequence_change="G54U A64G" measure=self-cleavage result=0.21
sequence_change="G80A U87C" measure=self-cleavage result=0.2
sequence_change="G34A A94G" measure=self-cleavage result=0.18
sequence_change="U46C A136G" measure=self-cleavage result=1.21
sequence_change="A94G A121C" measure=self-cleavage result=0.57
sequence_change="G32A A78G" measure=self-cleavage result=0.47
sequence_change="U20A A77U" measure=self-cleavage result=1.14
sequence_change="A42G G139A" measure=self-cleavage result=1.28
sequence_change="U87C U112C" measure=self-cleavage result=0.23
sequence_change="A30G A141U" measure=self-cleavage result=1.06
sequence_change="A50U A141G" measure=self-cleavage result=0.68
sequence_change="A69G C84G" measure=self-cleavage result=0.06
sequence_change="U85C U96C" measure=self-cleavage result=0.2
sequence_change="A6G G48A" measure=self-cleavage result=0.22
sequence_change="A77U A138U" measure=self-cleavage result=1.27
sequence_change="U104C G135A" measure=self-cleavage result=1.52
sequence_change="A107G A129U" measure=self-cleavage result=1.84
sequence_change="U26C G97A" measure=self-cleavage result=0.07
sequence_change="A6G A67U" measure=self-cleavage result=0.68
sequence_change="G10U A42G" measure=self-cleavage result=0
sequence_change="A2C U102C" measure=self-cleavage result=1.65
sequence_change="A22U U23C" measure=self-cleavage result=0.87
sequence_change="U102A U143A" measure=self-cleavage result=1.08
sequence_change="U29A U134A" measure=self-cleavage result=1.19
sequence_change="U104C C123A" measure=self-cleavage result=1.73
sequence_change="A6G G125A" measure=self-cleavage result=0.77
sequence_change="A69U G82A" measure=self-cleavage result=0.14
sequence_change="U85A A117G" measure=self-cleavage result=0.15
sequence_change="A2U A57G" measure=self-cleavage result=0.6
sequence_change="U62C A121G" measure=self-cleavage result=0.1
sequence_change="U85C A142U" measure=self-cleavage result=0.21
sequence_change="U52C A121U" measure=self-cleavage result=1.5
sequence_change="A50G U102G" measure=self-cleavage result=0.51
sequence_change="U13C A31C" measure=self-cleavage result=0.97
sequence_change="A22U A65G" measure=self-cleavage result=0.14
sequence_change="A79C A121G" measure=self-cleavage result=1.67
sequence_change="G4A U85C" measure=self-cleavage result=0.13
sequence_change="U91A A138G" measure=self-cleavage result=0.84
sequence_change="U85A U108A" measure=self-cleavage result=0.17
sequence_change="U1C U87C" measure=self-cleavage result=0.1
sequence_change="A107U U143A" measure=self-cleavage result=1.48
